Target: GLP-1 receptor (Homo sapiens, UniProt P43220)
Construct: expressed in transfected cells; host or cells: HEK293
Sequence (P43220 24-463, species assumed): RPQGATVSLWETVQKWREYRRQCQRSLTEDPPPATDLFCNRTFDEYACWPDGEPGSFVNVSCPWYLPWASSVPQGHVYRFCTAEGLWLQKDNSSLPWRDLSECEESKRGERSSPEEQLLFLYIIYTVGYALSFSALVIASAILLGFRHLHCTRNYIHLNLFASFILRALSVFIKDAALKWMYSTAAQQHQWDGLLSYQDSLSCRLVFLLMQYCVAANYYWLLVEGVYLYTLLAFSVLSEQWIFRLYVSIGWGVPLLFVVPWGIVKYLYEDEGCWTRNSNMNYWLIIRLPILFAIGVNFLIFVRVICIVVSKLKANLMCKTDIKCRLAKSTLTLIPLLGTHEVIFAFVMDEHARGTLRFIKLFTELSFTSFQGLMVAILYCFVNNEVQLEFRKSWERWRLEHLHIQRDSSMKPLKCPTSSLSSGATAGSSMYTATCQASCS
Assay: cAMP synthesis functional assay (firefly luciferase reporter in HEK293 cells), GLP-1 receptor
Type: cell-based
Conditions: Table 1; relative to the native hormone of the indicated receptor
Bridges are numbered along the chain shown (N, C = ends). Where no end group is shown, it is not given here. [ ]: non-standard residue; d: D form. PEG 40 kDa = PEG (40 kDa) covalently attached to Cys; Nle = CCCC[C@H](N)C(=O)O; Aib = CC(C)(N)C(=O)O
Provide the reported GLP-1 Receptor relative activity of each item.

Please review the entries below; each comes with its answer.
>>> result("mt-179: glucagon analog peptide, C-terminal amide; called GIP/glucagon co-agonist and triagonist (Y[Aib]QGTFISDYSIYLDEQAAKEFVC(PEG 40 kDa)WLLAG-NH2; lactam 16-20)")
"7.50%"
>>> result("mt-203: glucagon analog peptide, C-terminal amide (Y[Aib]QGTFTSDYSIYLDEQAAKEFVNWL[Nle]AGGPSSGAPPPSC(PEG 40 kDa)-NH2; lactam 16-20)")
"20.71%"
>>> result("Y[Aib]EGTFISDYSIAMDKIHQQDFVNWLLAQKGKKNWLKHNITQ-NH2 [mt-100]")
"0.01%"

Each of the following entries comes with a recorded value; kindly state GLP-1 Receptor relative activity for each.
1. mt-205: glucagon analog peptide, C-terminal amide (Y[Aib]EGTFTSDYSIYLDEQAAKEFVNWLLAGRPSSGAPPPSC(PEG 40 kDa)-NH2; lactam 16-20)
2. mt-202: glucagon analog peptide, C-terminal amide (Y[Aib]QGTFVSDYSIYLDEQAAKEFVNWLLAGGPSSGAPPPSC(PEG 40 kDa)-NH2; lactam 16-20)
3. FTSDYSIYLDEQAAKEFVNWLLAGGPSSGAPPPS-NH2 [mt-192]

["14.22%", "0.18%", "0.06%"]

* * *

Provide the reported Glucagon Receptor relative activity of each item.
Molecular target: glucagon receptor (Homo sapiens)
Construct: expressed in transfected cells; host or cells: HEK293
Sequence (P47871 26-477): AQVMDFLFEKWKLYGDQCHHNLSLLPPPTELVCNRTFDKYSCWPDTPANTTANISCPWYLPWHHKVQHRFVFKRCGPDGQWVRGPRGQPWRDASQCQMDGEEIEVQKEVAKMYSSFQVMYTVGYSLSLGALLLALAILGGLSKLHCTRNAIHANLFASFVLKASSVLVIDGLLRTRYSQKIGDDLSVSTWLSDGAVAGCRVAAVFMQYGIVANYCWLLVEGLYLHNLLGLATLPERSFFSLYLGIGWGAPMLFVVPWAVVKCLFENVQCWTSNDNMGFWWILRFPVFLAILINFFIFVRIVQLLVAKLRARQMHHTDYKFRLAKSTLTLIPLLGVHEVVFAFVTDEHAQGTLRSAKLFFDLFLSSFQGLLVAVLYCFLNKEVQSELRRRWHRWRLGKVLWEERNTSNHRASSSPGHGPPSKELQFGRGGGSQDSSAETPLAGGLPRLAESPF
Experiment: cAMP synthesis functional assay (firefly luciferase reporter in HEK293 cells), glucagon receptor
Type: cell-based
Conditions: Table 1; relative to the native hormone of the indicated receptor
Bridges are numbered along the chain shown (N, C = ends). Where no end group is shown, it is not given here. [ ]: non-standard residue; d: D form. PEG 40 kDa = PEG (40 kDa) covalently attached to Cys; Nle = CCCC[C@H](N)C(=O)O; Aib = CC(C)(N)C(=O)O
Give bare numbers, in %.

>>> result("mt-203: glucagon analog peptide, C-terminal amide (Y[Aib]QGTFTSDYSIYLDEQAAKEFVNWL[Nle]AGGPSSGAPPPSC(PEG 40 kDa)-NH2; lactam 16-20)")
1.38
>>> result("mt-179: glucagon analog peptide, C-terminal amide; called GIP/glucagon co-agonist and triagonist (Y[Aib]QGTFISDYSIYLDEQAAKEFVC(PEG 40 kDa)WLLAG-NH2; lactam 16-20)")
2.92
>>> result("mt-205: glucagon analog peptide, C-terminal amide (Y[Aib]EGTFTSDYSIYLDEQAAKEFVNWLLAGRPSSGAPPPSC(PEG 40 kDa)-NH2; lactam 16-20)")
0.01
>>> result("Y[Aib]EGTFTSDYSIYLDEQAAKEFVNWLLAGKGKKNWLKHNITQC-NH2 (lactam 16-20) [mt-206]")
0.01
>>> result("mt-202: glucagon analog peptide, C-terminal amide (Y[Aib]QGTFVSDYSIYLDEQAAKEFVNWLLAGGPSSGAPPPSC(PEG 40 kDa)-NH2; lactam 16-20)")
2.84
>>> result("HSQGTFTSDYSKYLDKIHQEEFIAWLMNT-NH2 [mt-68]")
13.20
>>> result("HSQGTFTSDYSKYLDEIHQKEFIAWLLAQ-NH2 [mt-66]")
13.00
>>> result("Y[Aib]EGTFISDYSIAMDKIHQQDFVNWLLAQKGKKNWLKHNITQ-NH2 [mt-100]")
0.01

Quote Glucagon Receptor relative activity reported for YAEGTFISDYSIAMDKIHQQDFVNWLLAQ-NH2 [mt-106] please.
0.11

* * *

Molecular target: GIP receptor (Homo sapiens)
Construct: expressed in transfected cells; host or cells: HEK293
Sequence (P48546 22-466): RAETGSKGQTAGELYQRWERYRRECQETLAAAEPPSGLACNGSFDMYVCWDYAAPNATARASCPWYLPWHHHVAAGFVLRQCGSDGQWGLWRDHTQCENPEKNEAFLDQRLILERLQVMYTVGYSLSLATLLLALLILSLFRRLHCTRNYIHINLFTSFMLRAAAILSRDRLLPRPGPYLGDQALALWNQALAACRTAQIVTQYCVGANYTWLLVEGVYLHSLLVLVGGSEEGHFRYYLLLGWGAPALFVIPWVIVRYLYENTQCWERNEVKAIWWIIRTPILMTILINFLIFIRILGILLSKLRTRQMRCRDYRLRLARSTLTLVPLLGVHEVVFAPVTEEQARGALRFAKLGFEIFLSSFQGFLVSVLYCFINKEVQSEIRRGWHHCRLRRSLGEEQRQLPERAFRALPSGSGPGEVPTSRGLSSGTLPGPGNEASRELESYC
Test: cAMP synthesis functional assay (firefly luciferase reporter in HEK293 cells), GIP receptor
Assay type: cell-based
Settings: read-out: GIP Receptor EC50; cAMP luciferase reporter assay as in Example 16
Where no end group is shown, it is not given here. [ ]: non-standard residue; d: D form. PEG 40 kDa = PEG (40 kDa) covalently attached to Cys; Aib = CC(C)(N)C(=O)O
measured-property: pEC50
Numbers only, as −log10 of the molar value.

>>> result("mt-295: linear peptide of Table 3 (Y[Aib]EGTFTSDYSIYLDKQAA[Aib]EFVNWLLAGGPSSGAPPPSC(PEG 40 kDa)-NH2)")
10.24

Quote pEC50 reported for mt-281 (Y[Aib]QGTFTSDYSIYLDKQAA[Aib]EFVC(PEG 40 kDa)WLLAG-NH2) please.
9.40

* * *

Molecular target: GIP receptor (Homo sapiens, UniProt P48546)
Construct: expressed in transfected cells; host or cells: HEK293
Sequence (P48546 22-466): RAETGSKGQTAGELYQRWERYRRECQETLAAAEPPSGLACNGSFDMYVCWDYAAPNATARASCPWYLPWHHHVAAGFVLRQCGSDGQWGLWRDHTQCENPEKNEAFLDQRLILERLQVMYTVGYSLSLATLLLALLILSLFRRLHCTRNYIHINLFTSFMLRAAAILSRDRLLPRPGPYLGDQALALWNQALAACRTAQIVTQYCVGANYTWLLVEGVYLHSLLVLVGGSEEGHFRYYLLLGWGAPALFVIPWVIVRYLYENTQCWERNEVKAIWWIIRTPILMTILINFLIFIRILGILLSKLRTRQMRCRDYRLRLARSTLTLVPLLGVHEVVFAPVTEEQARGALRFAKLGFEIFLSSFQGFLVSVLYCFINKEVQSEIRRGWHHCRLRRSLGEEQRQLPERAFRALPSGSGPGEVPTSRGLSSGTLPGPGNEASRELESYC
Assay: cAMP synthesis functional assay (firefly luciferase reporter in HEK293 cells), GIP receptor
Type: cell-based
Settings: Table 1; relative to the native hormone of the indicated receptor
Bridges are numbered along the chain shown (N, C = ends). Where no end group is shown, it is not given here. [ ]: non-standard residue; d: D form. PEG 40 kDa = PEG (40 kDa) covalently attached to Cys; Aib = CC(C)(N)C(=O)O
Provide the reported GIP Receptor relative activity of each item.
Numbers only, in %.

Please review the entries below; each comes with its answer.
>>> result("mt-205: glucagon analog peptide, C-terminal amide (Y[Aib]EGTFTSDYSIYLDEQAAKEFVNWLLAGRPSSGAPPPSC(PEG 40 kDa)-NH2; lactam 16-20)")
1.74
>>> result("mt-179: glucagon analog peptide, C-terminal amide; called GIP/glucagon co-agonist and triagonist (Y[Aib]QGTFISDYSIYLDEQAAKEFVC(PEG 40 kDa)WLLAG-NH2; lactam 16-20)")
3.74
>>> result("mt-208: glucagon analog peptide, C-terminal amide (Y[Aib]EGTFTSDYSIYLDEQAAKEFVNWLLAGKGKKNWLKHNITQC(PEG 40 kDa)-NH2; lactam 16-20)")
4.79

Each of the following entries comes with a recorded value; kindly state GIP Receptor relative activity for each.
1. mt-202: glucagon analog peptide, C-terminal amide (Y[Aib]QGTFVSDYSIYLDEQAAKEFVNWLLAGGPSSGAPPPSC(PEG 40 kDa)-NH2; lactam 16-20)
2. Y[Aib]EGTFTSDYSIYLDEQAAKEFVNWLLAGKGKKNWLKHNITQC-NH2 (lactam 16-20) [mt-206]
3. YAPGTFISDYSIAMDKIHQQDFVNWLLAQKGKKNWLKHNITQ-NH2 [mt-101]
4. YAPGTFISDYSIAMDKIHQQDFVCWLLAQKGKKNWLKHNITQ-NH2 [mt-104]
5. Y[Aib]EGTFISDYSIAMDKIHQQDFVNWLLAQKGKKNWLKHNITQ-NH2 [mt-100]

1.32
13.04
0.06
0.22
306.25

Where do the numbers come from? From patent US9062124B2.
